test_target: UniProtKB P81908
Sequence (P81908 whole entry): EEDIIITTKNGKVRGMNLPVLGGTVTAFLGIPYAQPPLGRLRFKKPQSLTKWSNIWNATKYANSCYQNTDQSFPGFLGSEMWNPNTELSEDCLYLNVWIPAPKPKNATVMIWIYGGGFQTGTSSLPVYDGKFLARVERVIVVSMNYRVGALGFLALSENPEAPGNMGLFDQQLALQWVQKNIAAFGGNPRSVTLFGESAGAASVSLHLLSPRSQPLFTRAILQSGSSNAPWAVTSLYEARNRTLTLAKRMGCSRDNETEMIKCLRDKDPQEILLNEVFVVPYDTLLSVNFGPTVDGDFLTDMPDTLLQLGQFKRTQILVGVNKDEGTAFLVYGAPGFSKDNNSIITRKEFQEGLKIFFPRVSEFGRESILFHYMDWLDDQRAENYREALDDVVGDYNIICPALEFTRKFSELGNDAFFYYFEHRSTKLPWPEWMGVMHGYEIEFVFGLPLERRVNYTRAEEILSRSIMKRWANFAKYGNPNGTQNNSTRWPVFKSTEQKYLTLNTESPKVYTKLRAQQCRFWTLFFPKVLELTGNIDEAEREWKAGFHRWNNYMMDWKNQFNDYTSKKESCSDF
assay_explanation: Reversible inhibition of equine serum BuChE assessed as enzyme activity at 0.1 times IC50 using butyrylthiocholine iodide as substrate measured at 120 mins by Ellman's method relative to control
Set-up: scale not given: the % may be the effect or the level left
result_type: Activity (%)
Give just the numeric value; % need not be written.

Recorded Activity for CCN(C)C(=O)Oc1cccc(/C=C/C(=O)c2ccccc2OC(=O)N(C)CC)c1 , please? 70.9

Recorded Activity for CCN(C)C(=O)Oc1cccc([C@H](C)N(C)C)c1 , please? 71.6

Recorded Activity for COc1cc2c(cc1OC)C(=O)C(CC1CCN(Cc3ccccc3)CC1)C2 (centres undefined) , please? 104
